# maps each entry to its Ki
# measurementTarget: purified catalytic domain of recombinant human TACE (rhTACEc) (Homo sapiens, UniProt P78536, N452Q/S266A)
# Construct: 6xHis (C); made in house; host or cells: baculovirus/Hi5 insect cells
# Sequence (P78536 215-477 S266A/N452Q): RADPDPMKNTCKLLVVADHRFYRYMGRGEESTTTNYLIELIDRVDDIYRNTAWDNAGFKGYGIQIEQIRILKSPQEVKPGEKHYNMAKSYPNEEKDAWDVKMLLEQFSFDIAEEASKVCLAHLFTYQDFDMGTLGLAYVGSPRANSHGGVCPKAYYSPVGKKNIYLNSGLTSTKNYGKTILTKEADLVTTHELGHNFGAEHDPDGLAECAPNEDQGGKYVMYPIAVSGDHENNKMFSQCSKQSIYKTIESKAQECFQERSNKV
# experimentSummary: TACE kinetic assay: cleavage of internally quenched peptide substrate TNF-FRET 2 (Ki)
# Format: biochemical
# testContext: TNF-FRET 2 substrate, read-out: Ki
Please provide the amount together with its unit, number first.

| lineNotation | Ki |
| --- | --- |
| COc1ccc2c(c1)C(=O)N(C[C@@]1(c3cc4nc(NC5CC5)ccc4o3)NC(=O)NC1=O)C2 | 0.179 nM |
| COc1ccc2c(c1)C(=O)N(C[C@@]1(c3cc4nc(-c5c(C)n[nH]c5C)ccc4o3)NC(=O)NC1=O)C2 | 0.14 nM |
| COc1ccc2c(c1)C(=O)N(C[C@@]1(c3cc4cc(-c5cccc(C#N)c5)ncc4o3)NC(=O)NC1=O)C2 | 0.92 nM |

Below: the item to evaluate.
input: # input compound: `COc1ccc2c(c1)C(=O)N(C[C@@]1(c3cc4nc(Nc5nccs5)ccc4o3)NC(=O)NC1=O)C2` ; wanted: its Ki
output: 0.62 nM

###

# measurementTarget: purified catalytic domain of recombinant human TACE (rhTACEc) (Homo sapiens, UniProt P78536, N452Q/S266A)
# Construct: 6xHis (C); made in house; host or cells: baculovirus/Hi5 insect cells
# experimentSummary: TACE kinetic assay: cleavage of internally quenched peptide substrate TNF-FRET 2 (Ki)
# Assay type: biochemical
# testContext: TNF-FRET 2 substrate, read-out: Ki
endpointName: pKi
Field pKi (float): negative decimal logarithm of the concentration in molar.

Some compounds with recorded pKi:
| compound | pKi |
| --- | --- |
| COc1ccc2c(c1)C(=O)N(C[C@@]1(c3cc4cnc(-c5c(C)nn(C)c5C)cc4o3)NC(=O)NC1=O)C2 [Compound 2251] | 9.13 |
| COc1ccc2c(c1)C(=O)N(C[C@@]1(c3cc4cc(NC(=O)N(C)C)ccc4o3)NC(=O)NC1=O)C2 [Compound 2228] | 9.08 |
| COc1ccc2c(c1)C(=O)N(C[C@@]1(c3cc4cc(C(=O)O)c(F)cc4o3)NC(=O)NC1=O)C2 [Compound 1272] | 9.29 |
| COc1ccc2c(c1F)C(=O)N(C[C@@]1(c3cc4cc(C)ncc4o3)NC(=O)NC1=O)C2 [Compound 305] | 9.19 |
| COc1ccc2c(c1)C(=O)N(C[C@@]1(c3cc4nc(N5CCCCC5=O)ccc4o3)NC(=O)NC1=O)C2 [Compound 1512] | 8.89 |

input: # input compound: CCCn1cc(-c2ccc3oc([C@]4(CN5Cc6ccc(OC)cc6C5=O)NC(=O)NC4=O)cc3n2)cn1 [Compound 2117] ; wanted: its pKi
output: 9.39

input: Note, next up: COc1ccc2c(c1)C(=O)N(C[C@@]1(c3cc4nc(NS(=O)(=O)C5CC5)ccc4o3)NC(=O)NC1=O)C2 [Compound 1938]
output: 9.24

input: Note, next up: COc1ccc2c(c1)C(=O)N(C[C@@]1(c3cc4cnc(-c5ccccc5F)cc4o3)NC(=O)NC1=O)C2 [Compound 2234]
output: 9.28

input: Note, next up: COc1ccc2c(c1F)C(=O)N(C[C@@]1(c3cc4cc([C@]5(C)NC(=O)NC5=O)c(F)cc4o3)NC(=O)NC1=O)C2 (single isomer, unassigned) [Compound 1327]
output: 9.33

input: Note, next up: COc1ccc2c(c1F)C(=O)N(C[C@@]1(c3ccc(-c4ccc(N)nc4)o3)NC(=O)NC1=O)C2 [Compound 310]
output: 10.68

input: Note, next up: COc1ccc2c(c1)C(=O)N(C[C@@]1(c3cc4nc(N5C[C@@H](O)CC5=O)ccc4o3)NC(=O)NC1=O)C2 [Compound 1531]
output: 9.19

input: Note, next up: CCOC(=O)N1CCc2cc([C@]3(CN4Cc5ccc(OC)cc5C4=O)NC(=O)NC3=O)oc2C1 [Compound 317]
output: 8.67

input: Note, next up: COc1ccc2c(c1)C(=O)N(C[C@@]1(c3cc4ccc(C(=O)NCCN(C)C)cc4o3)NC(=O)NC1=O)C2 [Compound 2412]
output: 9.49

input: Note, next up: COc1ccc2c(c1)C(=O)N(C[C@@]1(c3cc4nc(CO)ccc4o3)NC(=O)NC1=O)C2 [Compound 1945]
output: 9.16

###

# maps each entry to its log10(AUC)
# experimentSummary: Area under the curve determinations of plasma levels in rats (rrAUC), oral 10 mg/kg
# Assay type: in vivo
# testContext: rat, plasma 0.5-6 h post-dosing, read-out: RR AUC (rapid rat AUC, rrAUC)
Plainly stated, the numbers are log10 of AUC given in µM·h.

| lineNotation | log10(AUC) |
| --- | --- |
| COc1ccc2c(c1)C(=O)N(C[C@@]1(c3cc4nc(-c5ccc(N)nc5)ccc4o3)NC(=O)NC1=O)C2 | -1.04 |

input: # input compound: `COc1ccc2c(c1)C(=O)N(C[C@@]1(c3cc4nc(N5CCCCC5)ccc4o3)NC(=O)NC1=O)C2` ; wanted: its log10(AUC)
output: 0.55

input: Note, next up: `COc1ccc2c(c1)C(=O)N(C[C@@]1(c3cc4nc(Nc5c(C)nn(C)c5C)ccc4o3)NC(=O)NC1=O)C2`
output: -1.72

input: Note, next up: `COc1ccc2c(c1)C(=O)N(C[C@@]1(c3cc4c(-c5cccnc5)nccc4o3)NC(=O)NC1=O)C2`
output: -1.74

input: Note, next up: `COc1ccc2c(c1)C(=O)N(C[C@@]1(c3cc4cc(-c5ccccc5O)ncc4o3)NC(=O)NC1=O)C2`
output: 0.14

input: Note, next up: `COc1ccc2c(c1)C(=O)N(C[C@@]1(c3cc4nc(-c5cncnc5)ccc4o3)NC(=O)NC1=O)C2`
output: 0.34

###

# experimentSummary: Area under the curve determinations of plasma levels in rats (rrAUC), oral 10 mg/kg
# Assay type: in vivo
# testContext: rat, plasma 0.5-6 h, read-out: RR AUC (rapid rat AUC, rrAUC)
endpointName: AUC

| compound | AUC |
| --- | --- |
| COc1ccc2c(c1)C(=O)N(C[C@@]1(c3cc4nc(N)ccc4o3)NC(=O)NC1=O)C2 | 0.424 µM·h |

input: # input compound: CCOC(=O)C1CCCN(c2ccc3oc([C@]4(CN5Cc6ccc(OC)cc6C5=O)NC(=O)NC4=O)cc3n2)C1 (stereo partly shown) ; wanted: its AUC
output: 0.041 µM·h

input: Note, next up: `COc1ccc2c(c1)C(=O)N(C[C@@]1(c3cc4nc(C(N)=O)ccc4o3)NC(=O)NC1=O)C2`
output: 0.113 µM·h

input: Note, next up: `COc1ccc2c(c1F)C(=O)N(C[C@@]1(c3cc4ncc(C(N)=O)cc4o3)NC(=O)NC1=O)C2`
output: 0.094 µM·h

###

# maps each entry to its pKi
# measurementTarget: purified catalytic domain of recombinant human TACE (rhTACEc) (Homo sapiens, UniProt P78536, N452Q/S266A)
# Construct: 6xHis (C); made in house; host or cells: baculovirus/Hi5 insect cells
# experimentSummary: TACE kinetic assay: cleavage of internally quenched peptide substrate TNF-FRET 2 (Ki)
# Type: biochemical
# testContext: TNF-FRET 2 substrate, read-out: Ki
Field pKi (float): negative decimal logarithm of the concentration in molar.

Some molecules with recorded pKi:
| molecule | pKi |
| --- | --- |
| COC(=O)Nc1ccc2oc([C@]3(CN4Cc5ccc(OC)cc5C4=O)NC(=O)NC3=O)cc2n1 [Compound 2474] | 9.28 |
| COc1ccc2c(c1F)C(=O)N(C[C@@]1(c3cc4cc(-c5cn[nH]c5)c(F)cc4o3)NC(=O)NC1=O)C2 [Compound 1187] | 9.64 |
| COc1ccc2c(c1)C(=O)N(C[C@@]1(c3cc4cc(C(=O)NCCN(C)CCNC(=O)OC(C)(C)C)c(F)cc4o3)NC(=O)NC1=O)C2 [Compound 1278] | 8.74 |
| COc1ccc2c(c1)C(=O)N(C[C@@]1(c3cc4c(C(F)(F)F)nc(N)nc4o3)NC(=O)NC1=O)C2 [Compound 2305] | 9.25 |
| COc1ccc2c(c1)C(=O)N(C[C@@]1(c3ccc(C#N)cc3)NC(=O)NC1=O)C2 [Compound 2477] | 8.85 |
| COc1ccc2c(c1)C(=O)N(C[C@@]1(c3cc4nc(Nc5cn[nH]c5)ccc4o3)NC(=O)NC1=O)C2 [Compound 1729] | 9.37 |

input: # input molecule: COc1ccc2c(c1)C(=O)N(C[C@@]1(c3cc4nc(N5CC[C@@H](O)C5)ccc4o3)NC(=O)NC1=O)C2 [Compound 2166] ; wanted: its pKi
output: 9.56
